Documented CC50 across a set of molecules
System: HOP-62
Test: Anticancer activity against Homo sapiens (human) HOP62 cells after 48 hr by SRB assay
Assay type: functional
Conditions: HOP-62, 48 h, read-out: LC50 (the source's name)
PROPERTY NAME: CC50

- COc1ccc(OC)c(/C=C/C(=O)N/N=C/c2ccc(Cl)cc2)c1: > 100 µM
- COc1ccc(OC)c(/C=C/C(=O)N/N=C/c2ccccc2)c1: > 100 µM
- COc1ccc(OC)c(/C=C/c2nnc(Nc3ccc(Cl)cc3)o2)c1: 38.9 µM
- COc1ccc(OC)c(/C=C/c2nnc(S)n2-c2ccc(Cl)cc2)c1: > 100 µM
